# System: HepG2 viability, CellTiter-Glo ATP luminescence, 72 h
# Assay Summary: viability loss in human hepatoma cells – cell-based, CellTiter-Glo luminescence, cherry-pick, set 2, cytotoxicity control, dose response (AID 743395)
Entries and their measured AC35 follow.

{"Molecule": "COc1ccc(-c2cc(NC=O)c3ncc(-c4ccc(OC)c(OC)c4)n3c2)cc1", "Target Desc": "HepG2 viability, CellTiter-Glo ATP luminescence, 72 h", "AC35": "6.95 µM"}
{"Molecule": "COC(=O)c1ccccc1-c1c2ccc(=N)cc-2oc2cc(N)ccc12", "Target Desc": "HepG2 viability, CellTiter-Glo ATP luminescence, 72 h", "AC35": "15.8 µM"}
{"Molecule": "C=C1C(=O)O[C@@H]2C[C@@H](C)[C@@H]3C=CC(=O)[C@@]3(C)[C@@H](O)[C@H]12", "Target Desc": "HepG2 viability, CellTiter-Glo ATP luminescence, 72 h", "AC35": "2.99 µM"}
{"Molecule": "Cc1ccc(OCCNC(=O)c2cccc(S(=O)(=O)NCc3ccccc3)c2)cc1", "Target Desc": "HepG2 viability, CellTiter-Glo ATP luminescence, 72 h", "AC35": "15.2 µM"}
{"Molecule": "CCN(CC)CCCNc1nc2ccccc2c2nc(-c3ccncc3)nn12", "Target Desc": "HepG2 viability, CellTiter-Glo ATP luminescence, 72 h", "AC35": "7.23 µM"}
{"Molecule": "Cc1ccc2[nH]c(C(=O)N/N=C/c3ccccc3O)c(C)c2c1", "Target Desc": "HepG2 viability, CellTiter-Glo ATP luminescence, 72 h", "AC35": "2.41 µM"}
{"Molecule": "Cc1cccc(NC(=S)N/N=C/c2cccc(O)c2)c1C", "Target Desc": "HepG2 viability, CellTiter-Glo ATP luminescence, 72 h", "AC35": "12.2 µM"}
{"Molecule": "COc1cccc(S(=O)(=O)N2C[C@@H]3N[C@H](C2)C3c2ccc(-c3cccc(C)c3)cc2)c1 (some centres undefined)", "Target Desc": "HepG2 viability, CellTiter-Glo ATP luminescence, 72 h", "AC35": "12 µM"}
{"Molecule": "COc1ccc(-c2ccc3c(c2)[C@H]2[C@H](CCN2S(=O)(=O)c2ccc(OC)cc2)[C@@H](CO)N3)cc1", "Target Desc": "HepG2 viability, CellTiter-Glo ATP luminescence, 72 h", "AC35": "14.5 µM"}
{"Molecule": "Cn1nccc1C(=O)N/N=C/c1c(O)ccc2ccccc12", "Target Desc": "HepG2 viability, CellTiter-Glo ATP luminescence, 72 h", "AC35": "4.13 µM"}
{"Molecule": "C=C1C(=O)[C@]23C[C@H]1CC[C@H]2[C@]1(C)[C@@H](OC(C)=O)CC[C@@](C)(C(=O)O)[C@H]1C[C@@H]3O", "Target Desc": "HepG2 viability, CellTiter-Glo ATP luminescence, 72 h", "AC35": "11.3 µM"}
{"Molecule": "CCCC(=O)NC(NC(=S)Nc1ccc(N=Nc2ccccc2)cc1)C(Cl)(Cl)Cl (centres undefined)", "Target Desc": "HepG2 viability, CellTiter-Glo ATP luminescence, 72 h", "AC35": "5.73 µM"}
{"Molecule": "Nc1ccc2c3c(cccc13)C(=O)N(c1ccccc1)C2=O", "Target Desc": "HepG2 viability, CellTiter-Glo ATP luminescence, 72 h", "AC35": "10.7 µM"}
{"Molecule": "CC(C)(C)c1cc(C(=O)NN)n(Cc2ccc(Cl)cc2Cl)n1", "Target Desc": "HepG2 viability, CellTiter-Glo ATP luminescence, 72 h", "AC35": "18.7 µM"}
{"Molecule": "COc1ccc(C2=NOC(C(=O)NCc3ccc(F)cc3)C2)cc1OC (centres undefined)", "Target Desc": "HepG2 viability, CellTiter-Glo ATP luminescence, 72 h", "AC35": "7.73 µM"}
{"Molecule": "COc1ccc(-c2ccc3c(c2)[C@H]2[C@H](CCN2S(=O)(=O)c2ccc(OC)cc2)[C@@H](CO)N3C)cc1", "Target Desc": "HepG2 viability, CellTiter-Glo ATP luminescence, 72 h", "AC35": "18.2 µM"}
{"Molecule": "Cc1ccc(S(=O)(=O)Nc2ccc3c(c2)CC(=O)N([C@@H](C)CO)C[C@@H](C)[C@@H](CN(C)Cc2ccc(Cl)c(Cl)c2)O3)cc1", "Target Desc": "HepG2 viability, CellTiter-Glo ATP luminescence, 72 h", "AC35": "10.3 µM"}
{"Molecule": "COc1cc(/C=C2/SC(=S)N(Cc3ccccc3)C2=O)cc(Cl)c1O", "Target Desc": "HepG2 viability, CellTiter-Glo ATP luminescence, 72 h", "AC35": "12.5 µM"}
{"Molecule": "C=C1C(=O)O[C@@H]2[C@H]1[C@@H](OC(=O)/C(C)=C/C)C/C(C)=C\\C(=O)/C=C(\\C)[C@@H]2O", "Target Desc": "HepG2 viability, CellTiter-Glo ATP luminescence, 72 h", "AC35": "8.97 µM"}
